# tested_system: KDM7A (KIAA1718) dual domain
# Sequence (chain, as listed by the source): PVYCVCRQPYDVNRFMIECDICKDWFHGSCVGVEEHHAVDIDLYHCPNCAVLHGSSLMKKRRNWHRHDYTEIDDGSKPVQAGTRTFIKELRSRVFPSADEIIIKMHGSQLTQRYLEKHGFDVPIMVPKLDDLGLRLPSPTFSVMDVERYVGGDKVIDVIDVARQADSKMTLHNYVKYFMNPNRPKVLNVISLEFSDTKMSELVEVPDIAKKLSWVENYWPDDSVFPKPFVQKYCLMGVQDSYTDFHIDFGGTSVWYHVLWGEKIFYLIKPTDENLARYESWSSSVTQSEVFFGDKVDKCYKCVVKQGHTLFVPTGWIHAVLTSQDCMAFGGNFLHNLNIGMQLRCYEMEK
Bridge positions count the residues as written; N and C are the ends. Ends that are not written are not given here.
reported_endpoint: IC50 (nM)

# binder, reported_endpoint, scale_unit, experimental_value
measured = [
    ("{CH2CO}-YYLTHPYPSVFRTC (thioether N-14) [OC9, de novo cyclic peptide from mRNA display]", "IC50", "nM", 126),
]
